- tested.target: factor Xa (Homo sapiens)
- Sequence (P00742 235-488 limits assumed): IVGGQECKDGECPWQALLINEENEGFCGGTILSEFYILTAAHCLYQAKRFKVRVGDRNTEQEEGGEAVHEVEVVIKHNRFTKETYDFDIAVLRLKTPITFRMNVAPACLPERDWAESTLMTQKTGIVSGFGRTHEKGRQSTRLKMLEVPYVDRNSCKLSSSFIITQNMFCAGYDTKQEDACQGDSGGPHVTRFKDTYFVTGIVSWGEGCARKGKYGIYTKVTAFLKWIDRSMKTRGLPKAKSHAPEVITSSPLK
- Sequence (P00742 41-179 limits assumed): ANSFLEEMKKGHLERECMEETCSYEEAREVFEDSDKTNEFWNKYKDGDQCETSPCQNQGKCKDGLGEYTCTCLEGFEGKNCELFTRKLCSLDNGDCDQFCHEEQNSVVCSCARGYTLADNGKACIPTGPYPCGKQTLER
- experimental.details: Fluorogenic enzyme assay (Example 5)
- Format: biochemical
- condition: Table 9
measurement.type: kcat, Xa (s⁻¹)
Lab book: enter the figure in s⁻¹, no units written.

Read off the recorded kcat, Xa for `CCCNS(=O)(=O)c1cccc2cc(NC(=O)[C@H](CCCNC(=N)N)NC(=O)[C@H](Cc3ccccc3)NC(=O)[C@@H]3CCCN3)ccc12.Cl.Cl` 1.33

Read off the recorded kcat, Xa for `Cc1ccc(S(=O)(=O)NCC(=O)N2CCC[C@H]2C(=O)N[C@@H](CCCNC(=N)N)C(=O)Nc2ccc3c(S(=O)(=O)NCC(C)C)cccc3c2)cc1` 2.4

Read off the recorded kcat, Xa for `CC(C)C[C@@H](NC(=O)OCc1ccccc1)C(=O)N1CCC[C@H]1C(=O)N[C@@H](CCCNC(=N)N)C(=O)Nc1ccc2c(S(=O)(=O)N3CCCCC3)cccc2c1` 3.5

Read off the recorded kcat, Xa for `CCCNS(=O)(=O)c1cccc2cc(NC(=O)[C@H](CCCNC(=N)N)NC(=O)[C@H](Cc3ccccc3)NC(=O)[C@@H]3CCCN3C(=O)OC(C)(C)C)ccc12` 0.06

Read off the recorded kcat, Xa for `Br.Br.CC(C)C[C@@H](N)C(=O)N1CCC[C@H]1C(=O)N[C@@H](CCCNC(=N)N)C(=O)Nc1ccc2c(S(=O)(=O)N3CCCCC3)cccc2c1` 2.9

----------
- tested.target: factor Xa (Homo sapiens)
- experimental.details: Fluorogenic enzyme assay (Example 5)
- Type: biochemical
- condition: enzyme 100 nM, substrate 1 μM
Please go through the items and note down their Time (min) for 10% hydrolysis, Xa.
Lab book: enter the figure in min, no units written.

Read off the recorded Time (min) for 10% hydrolysis, Xa for Br.CC(C)(C)NS(=O)(=O)c1cccc2cc(NC(=O)[C@H](CCCNC(=N)N)NC(=O)OCc3ccccc3)ccc12 [(N^α -Z)ArgANSNR1 R2; H; t-C4 H9] 45

Read off the recorded Time (min) for 10% hydrolysis, Xa for Br.CCCNS(=O)(=O)c1cccc2cc(NC(=O)[C@H](CCCNC(=N)N)NC(=O)OCc3ccccc3)ccc12 [(N^α -Z)ArgANSNR1 R2; H; C3 H7] 40

Read off the recorded Time (min) for 10% hydrolysis, Xa for Br.N=C(N)NCCC[C@H](NC(=O)OCc1ccccc1)C(=O)Nc1ccc2c(S(=O)(=O)NC3CCCCC3)cccc2c1 [(N^α -Z)ArgANSNR1 R2; H; cyclo-C6 H11] 55

----------
- tested.target: activated protein C (APC) (Homo sapiens)
- experimental.details: Fluorogenic enzyme assay (Example 5)
- Assay type: biochemical
- condition: Table 7
measurement.type: kcat, APC (s⁻¹)
Lab book: enter the figure in s⁻¹, no units written.

Read off the recorded kcat, APC for Br.CC(C)CNS(=O)(=O)c1cccc2cc(NC(=O)[C@H](CCCNC(=N)N)NC(=O)OCc3ccccc3)ccc12 [(N^α -Z)ArgANSNR1 R2; H; i-C4 H9] 1.6

Read off the recorded kcat, APC for Br.CC(C)(C)NS(=O)(=O)c1cccc2cc(NC(=O)[C@H](CCCNC(=N)N)NC(=O)OCc3ccccc3)ccc12 [(N^α -Z)ArgANSNR1 R2; H; t-C4 H9] 0.4

Read off the recorded kcat, APC for Br.CCCCCNS(=O)(=O)c1cccc2cc(NC(=O)[C@H](CCCNC(=N)N)NC(=O)OCc3ccccc3)ccc12 [(N^α -Z)ArgANSNR1 R2; H; C5 H11] 0.8

Read off the recorded kcat, APC for Br.CC(C)NS(=O)(=O)c1cccc2cc(NC(=O)[C@H](CCCNC(=N)N)NC(=O)OCc3ccccc3)ccc12 [(N^α -Z)ArgANSNR1 R2; H; i-C3 H7] 0.17

Read off the recorded kcat, APC for Br.N=C(N)NCCC[C@H](NC(=O)OCc1ccccc1)C(=O)Nc1ccc2c(S(=O)(=O)NCc3ccccc3)cccc2c1 [(N^α -Z)ArgANSNR1 R2; H; benzyl] 0.23

Read off the recorded kcat, APC for Br.CCCNS(=O)(=O)c1cccc2cc(NC(=O)[C@H](CCCNC(=N)N)NC(=O)OCc3ccccc3)ccc12 [(N^α -Z)ArgANSNR1 R2; H; C3 H7] 0.47

Read off the recorded kcat, APC for Br.N=C(N)NCCC[C@H](NC(=O)OCc1ccccc1)C(=O)Nc1ccc2c(S(=O)(=O)NC3CCCCC3)cccc2c1 [(N^α -Z)ArgANSNR1 R2; H; cyclo-C6 H11] 0.44

----------
- tested.target: activated protein C (APC) (Homo sapiens, UniProt P04070)
- Sequence (P04070 212-461 limits assumed): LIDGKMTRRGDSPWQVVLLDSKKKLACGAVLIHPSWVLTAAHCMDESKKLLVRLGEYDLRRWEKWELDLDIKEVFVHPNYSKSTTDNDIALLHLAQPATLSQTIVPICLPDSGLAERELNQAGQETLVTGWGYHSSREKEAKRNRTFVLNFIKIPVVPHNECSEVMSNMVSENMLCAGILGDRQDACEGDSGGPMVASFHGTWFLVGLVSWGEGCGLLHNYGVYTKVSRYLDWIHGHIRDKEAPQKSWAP
- Sequence (P04070 43-197 limits assumed): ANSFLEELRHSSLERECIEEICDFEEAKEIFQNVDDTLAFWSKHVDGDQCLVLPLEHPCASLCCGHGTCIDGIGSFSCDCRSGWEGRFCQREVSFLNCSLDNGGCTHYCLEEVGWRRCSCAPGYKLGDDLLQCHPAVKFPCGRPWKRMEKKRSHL
- experimental.details: Fluorogenic enzyme assay (Example 5)
- Assay type: biochemical
- condition: Table 7
measurement.type: kcat /Km, APC
The reply should read as a number followed by its unit.

Read off the recorded kcat /Km, APC for `Br.CC(C)(C)NS(=O)(=O)c1cccc2cc(NC(=O)[C@H](CCCNC(=N)N)NC(=O)OCc3ccccc3)ccc12` 540 M⁻¹ s⁻¹

Read off the recorded kcat /Km, APC for `Br.CCCNS(=O)(=O)c1cccc2cc(NC(=O)[C@H](CCCNC(=N)N)NC(=O)OCc3ccccc3)ccc12` 1470 M⁻¹ s⁻¹

Read off the recorded kcat /Km, APC for `Br.N=C(N)NCCC[C@H](NC(=O)OCc1ccccc1)C(=O)Nc1ccc2c(S(=O)(=O)NCc3ccccc3)cccc2c1` 1050 M⁻¹ s⁻¹

Read off the recorded kcat /Km, APC for `Br.CC(C)NS(=O)(=O)c1cccc2cc(NC(=O)[C@H](CCCNC(=N)N)NC(=O)OCc3ccccc3)ccc12` 510 M⁻¹ s⁻¹

Read off the recorded kcat /Km, APC for `Br.CCCCCNS(=O)(=O)c1cccc2cc(NC(=O)[C@H](CCCNC(=N)N)NC(=O)OCc3ccccc3)ccc12` 1830 M⁻¹ s⁻¹

Read off the recorded kcat /Km, APC for `Br.CC(C)CNS(=O)(=O)c1cccc2cc(NC(=O)[C@H](CCCNC(=N)N)NC(=O)OCc3ccccc3)ccc12` 1670 M⁻¹ s⁻¹

Read off the recorded kcat /Km, APC for `Br.N=C(N)NCCC[C@H](NC(=O)OCc1ccccc1)C(=O)Nc1ccc2c(S(=O)(=O)NC3CCCCC3)cccc2c1` 2470 M⁻¹ s⁻¹

----------
- tested.target: activated protein C (APC) (Homo sapiens)
- experimental.details: Fluorogenic enzyme assay (Example 5)
- Assay type: biochemical
- condition: 10 nM enzyme, substrate 1 μM
Note to self: values exactly at 0.5 h are Satisfied. So TIME TO 10% HYDROLYSIS (HOURS), APC at or above 0.5 h is Satisfied, below is Not satisfied.

Reported TIME TO 10% HYDROLYSIS (HOURS), APC reaches at least 0.5 h for `CCCNS(=O)(=O)c1cccc2cc(NC(=O)[C@H](CCCNC(=N)N)NC(=O)[C@H](Cc3ccccc3)NC(=O)[C@@H]3CCCN3)ccc12.Cl.Cl` ? Not satisfied

Reported TIME TO 10% HYDROLYSIS (HOURS), APC reaches at least 0.5 h for `Br.Br.CC(C)C[C@@H](N)C(=O)N1CCC[C@H]1C(=O)N[C@@H](CCCNC(=N)N)C(=O)Nc1ccc2c(S(=O)(=O)N3CCCCC3)cccc2c1` ? Not satisfied

Reported TIME TO 10% HYDROLYSIS (HOURS), APC reaches at least 0.5 h for `Cc1ccc(S(=O)(=O)NCC(=O)N2CCC[C@H]2C(=O)N[C@@H](CCCNC(=N)N)C(=O)Nc2ccc3c(S(=O)(=O)NCC(C)C)cccc3c2)cc1` ? Not satisfied

Reported TIME TO 10% HYDROLYSIS (HOURS), APC reaches at least 0.5 h for `CCCNS(=O)(=O)c1cccc2cc(NC(=O)[C@H](CCCNC(=N)N)NC(=O)[C@H](Cc3ccccc3)NC(=O)[C@@H]3CCCN3C(=O)OC(C)(C)C)ccc12` ? Satisfied

Reported TIME TO 10% HYDROLYSIS (HOURS), APC reaches at least 0.5 h for `N=C(N)NCCC[C@H](NC(=O)CNC(=O)CNC(=O)OCc1ccccc1)C(=O)N[C@@H](CCCNC(=N)N)C(=O)Nc1ccc2c(S(=O)(=O)NC3CCCCC3)cccc2c1` ? Satisfied

----------
- tested.target: activated protein C (APC) (Homo sapiens)
- experimental.details: Fluorogenic enzyme assay (Example 5)
- Format: biochemical
- condition: enzyme 100 nM, substrate 1 μM
Please go through the items and note down their Time (min) for 10% hydrolysis, APC.
Lab book: enter the figure in min, no units written.

Read off the recorded Time (min) for 10% hydrolysis, APC for Br.N=C(N)NCCC[C@H](NC(=O)OCc1ccccc1)C(=O)Nc1ccc2c(S(=O)(=O)NCc3ccccc3)cccc2c1 [(N^α -Z)ArgANSNR1 R2; H; benzyl] 12

Read off the recorded Time (min) for 10% hydrolysis, APC for Br.CCN(CC)S(=O)(=O)c1cccc2cc(NC(=O)[C@H](CCCNC(=N)N)NC(=O)OCc3ccccc3)ccc12 [(N^α -Z)ArgANSNR1 R2; C2 H5; C2 H5] 1080

Read off the recorded Time (min) for 10% hydrolysis, APC for Br.CC(C)(C)NS(=O)(=O)c1cccc2cc(NC(=O)[C@H](CCCNC(=N)N)NC(=O)OCc3ccccc3)ccc12 [(N^α -Z)ArgANSNR1 R2; H; t-C4 H9] 45

Read off the recorded Time (min) for 10% hydrolysis, APC for Br.CCCNS(=O)(=O)c1cccc2cc(NC(=O)[C@H](CCCNC(=N)N)NC(=O)OCc3ccccc3)ccc12 [(N^α -Z)ArgANSNR1 R2; H; C3 H7] 15

Read off the recorded Time (min) for 10% hydrolysis, APC for Br.N=C(N)NCCC[C@H](NC(=O)OCc1ccccc1)C(=O)Nc1ccc2c(S(=O)(=O)N3CCOCC3)cccc2c1 [(N^α -Z)ArgANSNR1 R2; morpholyl] 171

Read off the recorded Time (min) for 10% hydrolysis, APC for Br.N=C(N)NCCC[C@H](NC(=O)OCc1ccccc1)C(=O)Nc1ccc2c(S(=O)(=O)NC3CCCCC3)cccc2c1 [(N^α -Z)ArgANSNR1 R2; H; cyclo-C6 H11] 12
